- target_entity: Transient receptor potential cation channel subfamily A member 1 (Homo sapiens)
- Sequence (O75762 whole entry): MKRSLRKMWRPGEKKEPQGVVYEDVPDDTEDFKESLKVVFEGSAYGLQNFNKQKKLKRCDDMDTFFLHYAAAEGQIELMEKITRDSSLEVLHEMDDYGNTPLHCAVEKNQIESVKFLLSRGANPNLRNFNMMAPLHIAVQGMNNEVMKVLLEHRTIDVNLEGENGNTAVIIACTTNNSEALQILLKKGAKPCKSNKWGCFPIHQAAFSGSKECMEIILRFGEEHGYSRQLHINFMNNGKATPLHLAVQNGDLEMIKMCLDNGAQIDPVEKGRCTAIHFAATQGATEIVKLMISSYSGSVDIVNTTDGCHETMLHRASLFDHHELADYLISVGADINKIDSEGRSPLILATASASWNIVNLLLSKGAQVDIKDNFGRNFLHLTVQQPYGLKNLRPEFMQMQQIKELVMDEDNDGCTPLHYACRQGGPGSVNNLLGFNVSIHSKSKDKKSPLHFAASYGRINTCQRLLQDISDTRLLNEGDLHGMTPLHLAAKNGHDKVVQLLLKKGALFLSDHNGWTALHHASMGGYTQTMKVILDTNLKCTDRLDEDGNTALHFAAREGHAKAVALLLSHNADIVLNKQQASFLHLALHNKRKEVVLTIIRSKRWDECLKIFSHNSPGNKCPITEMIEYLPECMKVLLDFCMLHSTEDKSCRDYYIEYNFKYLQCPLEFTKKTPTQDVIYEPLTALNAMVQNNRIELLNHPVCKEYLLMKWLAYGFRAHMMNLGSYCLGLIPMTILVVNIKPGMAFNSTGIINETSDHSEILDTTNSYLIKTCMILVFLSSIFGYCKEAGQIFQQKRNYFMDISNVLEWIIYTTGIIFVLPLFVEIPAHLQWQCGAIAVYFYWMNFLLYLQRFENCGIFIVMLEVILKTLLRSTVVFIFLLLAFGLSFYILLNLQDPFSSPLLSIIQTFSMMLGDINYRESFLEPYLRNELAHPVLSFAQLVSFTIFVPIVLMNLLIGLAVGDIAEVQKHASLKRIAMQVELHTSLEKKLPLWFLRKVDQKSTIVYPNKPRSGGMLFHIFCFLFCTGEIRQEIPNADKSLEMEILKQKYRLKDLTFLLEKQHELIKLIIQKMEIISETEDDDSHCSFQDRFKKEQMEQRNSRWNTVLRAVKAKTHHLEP
- experimental_details: Antagonist activity at full length human TRPA1 at holding potential of 15 mV measured after 1 min by PatchXpress electrophysiology assay
pIC50: −log10 of the molar value.
measured_quantity: pIC50

compound	pIC50
O=C(NCC(Cc1ccccc1)N1CCN(c2ccccn2)CC1)C1(c2ccc(Cl)cc2)CCCC1 (racemic)	< 6.00
O=C(NCC(c1ccccc1)N1CCC(O)(C(F)(F)F)CC1)C1(c2ccc(Cl)cc2)CC1 (racemic)	< 5.52
O=C(NC[C@@H](Cc1ccccc1)N1CCC(O)(C(F)(F)F)CC1)C1(c2ccc(Cl)cc2)CCCC1	8.10 to 9.14

Could you now look at the following compound, please?
Query: Recorded pIC50 of CN1CCN(C(CNC(=O)C2(c3ccc(Cl)cc3)CCCC2)Cc2ccccc2)CC1 (racemic) , please.
Response: < 5.52

----------
- experimental_details: Stability in human liver microsomes assessed as metabolic turnover number at 10 uM after 15 mins by LC-MS/UV analysis
- Assay type: ADME, microsome
- condition: read-out: Stability
Kindly state microsomal CLint at 10 µM for each of the entries shown.

Reference set, count: 5
compound	microsomal CLint at 10 µM
O=C(NCC(Cc1ccc(F)cc1)N1CCC2(CC1)COC2)C1(c2ccc(F)cc2)CCCC1 (racemic)	> 320 µL/min/mg
CC1(C(=O)NCC(Cc2ccccc2)N2CCC(O)(C(F)(F)F)CC2)CCCCC1 (racemic)	> 320 µL/min/mg
O=C(NC[C@@H](Cc1ccccc1)N1CCC(O)(C(F)(F)F)CC1)C1(c2ccc(Cl)cc2)CC1	> 320 µL/min/mg
O=C(NCC(c1ccccc1)N1CCC(O)(C(F)(F)F)CC1)C1(c2ccc(Cl)cc2)CC1 (racemic)	> 320 µL/min/mg
CC(C)(C)[C@H]1CC[C@H](C(=O)NCC(Cc2ccccc2)N2CCC(O)(C(F)(F)F)CC2)CC1 (mixture of isomers)	> 320 µL/min/mg

# batch: return microsomal CLint at 10 µM for each of the 6 compounds below
1. CC(C)(C(=O)NCC(Cc1ccccc1)N1CCC(O)(C(F)(F)F)CC1)C(F)(F)F (racemic)
2. O=C(NCC(Cc1ccccc1)N1CCC(O)(C(F)(F)F)CC1)C1(c2ccc(Cl)cc2)CCCC1 (racemic)
3. O=C(NCC(Cc1ccccc1)N1CCC(O)(C(F)(F)F)CC1)c1cc(C(F)(F)F)ccn1 (racemic)
4. CC(C)C(CNC(=O)C1(c2ccc(Cl)cc2)CCCC1)N1CCC(O)(C(F)(F)F)CC1 (racemic)
5. CN1CCN(C(CNC(=O)C2(c3ccc(Cl)cc3)CCCC2)Cc2ccccc2)CC1 (racemic)
6. O=C(NCC(Cc1ccccc1)N1CCC(C(F)(F)F)CC1)C1(c2ccc(F)cc2)CCCC1 (racemic)

Response:
284 µL/min/mg
> 320 µL/min/mg
285 µL/min/mg
> 320 µL/min/mg
> 320 µL/min/mg
238 µL/min/mg

Please supply microsomal CLint at 10 µM for each of the following items, keeping them in order.
1. O=C(NCC(Cc1ccc(F)cc1)N1CCC2(C1)CC2(F)F)C1(c2ccc(F)cc2)CCCC1 (racemic)
2. CC(C)c1csc(C(=O)NCC(Cc2ccccc2)N2CCC(O)(C(F)(F)F)CC2)n1 (racemic)
3. CN1CCC(CC(CNC(=O)C2(c3ccc(Cl)cc3)CCCC2)N2CCC(O)(C(F)(F)F)CC2)CC1 (racemic)

Response:
1: > 320 µL/min/mg; 2: > 320 µL/min/mg; 3: 42 µL/min/mg
